Taken from ChEMBL document CHEMBL4513141.

tested on: Staphylococcus aureus; settings: Concentration 20 uM; ASSAY_TEST Inhibition of Bacterial Growth; detection method Absorption (OD600); MEDIA CAMHB; plate type 384well; NBS; CORNING #3640; time 18 hr
Description: Antibacterial activity against Staphylococcus aureus MRSA ATCC 43300 (CO-ADD:GP_020); MIC in CAMBH media, using NBS plates, by OD(600)
Measured potencies and affinities stand elsewhere.
Known Inhibition of a selection of molecules
Note: unit % is implicit; provide only the numeric part.

Write down the reported Inhibition of C#C[C@]1(O)CC[C@H]2[C@@H]3CCC4=CC(=O)CC[C@@H]4[C@H]3CC[C@@]21CC , test system: Staphylococcus aureus.
8.4

Write down the reported Inhibition of Cc1ccc(Cl)c(Nc2ccccc2C(=O)[O-])c1Cl.O.[Na+] [MECLOFENAMATE SODIUM] , test system: Staphylococcus aureus.
27.36

Write down the reported Inhibition of CCOC(=O)C1=C(C)NC(C)=C(C(=O)OC)C1c1cccc(Cl)c1Cl (configuration not stated) , test system: Staphylococcus aureus.
13.21

Write down the reported Inhibition of COc1cc(N)c(Cl)cc1C(=O)N[C@@H]1CCN(CCCOc2ccc(F)cc2)C[C@@H]1OC.O [(R,S)-CISAPRIDE MONOHYDRATE] , test system: Staphylococcus aureus.
10.08

Write down the reported Inhibition of CS(=O)(=O)O.Cc1c(O)cccc1C(=O)N[C@@H](CSc1ccccc1)[C@H](O)CN1C[C@H]2CCCC[C@H]2C[C@H]1C(=O)NC(C)(C)C [NELFINAVIR MESYLATE] , test system: Staphylococcus aureus.
8.63

Write down the reported Inhibition of Cc1cccc(C)c1NC(=O)C1CCCCN1C.Cl (configuration not stated) [MEPIVACAINE HYDROCHLORIDE] , test system: Staphylococcus aureus.
10.78

Write down the reported Inhibition of C[C@H]1C[C@@H]2[C@H]([C@@H](O)C[C@@]3(C)[C@H]2CC[C@]3(O)C(=O)CO)[C@@]2(C)C=CC(=O)C=C12 , test system: Staphylococcus aureus.
7.4
